- protocol_description: molar heat capacity at constant pressure
- experimental_conditions: 322.65 K; 101.33 kPa; Liquid; Small sample (50 mg) DSC
assay_endpoint: molar heat capacity at constant pressure (J/K/mol)

[
  {
    "molecule": "BrCCCCCCCCCBr [1,9-dibromononane]",
    "molar heat capacity at constant pressure (J/K/mol)": 345.86
  },
  {
    "molecule": "BrCCCCCCCCCCCBr [1,11-dibromoundecane]",
    "molar heat capacity at constant pressure (J/K/mol)": 407.37
  },
  {
    "molecule": "BrCCCCCCCCBr [1,8-dibromooctane]",
    "molar heat capacity at constant pressure (J/K/mol)": 315.94
  },
  {
    "molecule": "BrCCCCCCCCCCCCBr [1,12-dibromododecane]",
    "molar heat capacity at constant pressure (J/K/mol)": 439.17
  }
]

###

- protocol_description: molar heat capacity at constant pressure
- experimental_conditions: 315.15 K; 101.33 kPa; Liquid; Small sample (50 mg) DSC
assay_endpoint: molar heat capacity at constant pressure (J/K/mol)

[
  {
    "molecule": "BrCCCCCCCCCBr [1,9-dibromononane]",
    "value_units": "J/K/mol",
    "numeric_value": 342.49
  },
  {
    "molecule": "BrCCCCCCCCCCCBr [1,11-dibromoundecane]",
    "value_units": "J/K/mol",
    "numeric_value": 403.35
  },
  {
    "molecule": "BrCCCCCCCCCCCCBr [1,12-dibromododecane]",
    "value_units": "J/K/mol",
    "numeric_value": 434.98
  },
  {
    "molecule": "BrCCCCCCCCBr [1,8-dibromooctane]",
    "value_units": "J/K/mol",
    "numeric_value": 312.99
  }
]

###

- protocol_description: molar heat capacity at constant pressure
- experimental_conditions: 351.15 K; 101.33 kPa; Liquid; Small sample (50 mg) DSC
assay_endpoint: molar heat capacity at constant pressure (J/K/mol)

[
  {
    "structure_as_smiles": "BrCCCCCCCCBr",
    "value_units": "J/K/mol",
    "numeric_value": 327.04
  },
  {
    "structure_as_smiles": "BrCCCCCCCCCCCBr",
    "value_units": "J/K/mol",
    "numeric_value": 423.21
  },
  {
    "structure_as_smiles": "BrCCCCCCCCCBr",
    "value_units": "J/K/mol",
    "numeric_value": 359.09
  },
  {
    "structure_as_smiles": "BrCCCCCCCCCCCCBr",
    "value_units": "J/K/mol",
    "numeric_value": 455.78
  }
]

###

- protocol_description: molar heat capacity at constant pressure
- experimental_conditions: 354.15 K; 101.33 kPa; Liquid; Small sample (50 mg) DSC
assay_endpoint: molar heat capacity at constant pressure (J/K/mol)

[
  {
    "structure_as_smiles": "BrCCCCCCCCCCCCBr",
    "molar heat capacity at constant pressure, J/K/mol": 457.38
  },
  {
    "structure_as_smiles": "BrCCCCCCCCCBr",
    "molar heat capacity at constant pressure, J/K/mol": 360.49
  },
  {
    "structure_as_smiles": "BrCCCCCCCCCCCBr",
    "molar heat capacity at constant pressure, J/K/mol": 424.86
  },
  {
    "structure_as_smiles": "BrCCCCCCCCBr",
    "molar heat capacity at constant pressure, J/K/mol": 328.19
  }
]

###

- protocol_description: molar heat capacity at constant pressure
- experimental_conditions: 333.15 K; 101.33 kPa; Liquid; Small sample (50 mg) DSC
assay_endpoint: molar heat capacity at constant pressure (J/K/mol)

[
  {
    "structure_as_smiles": "BrCCCCCCCCBr",
    "numeric_value": 320.05
  },
  {
    "structure_as_smiles": "BrCCCCCCCCCCCBr",
    "numeric_value": 413.17
  },
  {
    "structure_as_smiles": "BrCCCCCCCCCBr",
    "numeric_value": 350.69
  },
  {
    "structure_as_smiles": "BrCCCCCCCCCCCCBr",
    "numeric_value": 445.36
  }
]

###

- experimental_conditions: 318.15 K; 101.33 kPa; Liquid; Vibrating tube method
assay_endpoint: mass density (kg/m3)

[
  {
    "structure_as_smiles": "ClCCBr",
    "assay_endpoint": "mass density",
    "numeric_value": 1693.61
  },
  {
    "structure_as_smiles": "ClCCCCBr",
    "assay_endpoint": "mass density",
    "numeric_value": 1460.96
  },
  {
    "structure_as_smiles": "ClCCCCCBr",
    "assay_endpoint": "mass density",
    "numeric_value": 1377.96
  },
  {
    "structure_as_smiles": "ClCCCBr",
    "assay_endpoint": "mass density",
    "numeric_value": 1560.65
  },
  {
    "structure_as_smiles": "ClCCCCCCBr",
    "assay_endpoint": "mass density",
    "numeric_value": 1316.45
  }
]

###

- protocol_description: molar heat capacity at constant pressure
- experimental_conditions: 321.15 K; 101.33 kPa; Liquid; Small sample (50 mg) DSC
assay_endpoint: molar heat capacity at constant pressure (J/K/mol)

[
  {
    "compound": "BrCCCCCCCCCCCBr [1,11-dibromoundecane]",
    "numeric_value": 406.56
  },
  {
    "compound": "BrCCCCCCCCBr [1,8-dibromooctane]",
    "numeric_value": 315.35
  },
  {
    "compound": "BrCCCCCCCCCBr [1,9-dibromononane]",
    "numeric_value": 345.18
  },
  {
    "compound": "BrCCCCCCCCCCCCBr [1,12-dibromododecane]",
    "numeric_value": 438.31
  }
]

###

- protocol_description: molar heat capacity at constant pressure
- experimental_conditions: 316.65 K; 101.33 kPa; Liquid; Small sample (50 mg) DSC
assay_endpoint: molar heat capacity at constant pressure (J/K/mol)

[
  {
    "molecule": "BrCCCCCCCCCCCBr [1,11-dibromoundecane]",
    "value_units": "J/K/mol",
    "molar heat capacity at constant pressure": 404.15
  },
  {
    "molecule": "BrCCCCCCCCBr [1,8-dibromooctane]",
    "value_units": "J/K/mol",
    "molar heat capacity at constant pressure": 313.58
  },
  {
    "molecule": "BrCCCCCCCCCBr [1,9-dibromononane]",
    "value_units": "J/K/mol",
    "molar heat capacity at constant pressure": 343.16
  },
  {
    "molecule": "BrCCCCCCCCCCCCBr [1,12-dibromododecane]",
    "value_units": "J/K/mol",
    "molar heat capacity at constant pressure": 435.79
  }
]

###

- protocol_description: molar heat capacity at constant pressure
- experimental_conditions: 342.15 K; 101.33 kPa; Liquid; Small sample (50 mg) DSC
assay_endpoint: molar heat capacity at constant pressure (J/K/mol)

[
  {
    "structure_as_smiles": "BrCCCCCCCCBr",
    "molar heat capacity at constant pressure [J/K/mol]": 323.56
  },
  {
    "structure_as_smiles": "BrCCCCCCCCCCCCBr",
    "molar heat capacity at constant pressure [J/K/mol]": 450.69
  },
  {
    "structure_as_smiles": "BrCCCCCCCCCCCBr",
    "molar heat capacity at constant pressure [J/K/mol]": 418.21
  },
  {
    "structure_as_smiles": "BrCCCCCCCCCBr",
    "molar heat capacity at constant pressure [J/K/mol]": 354.89
  }
]

###

- protocol_description: molar heat capacity at constant pressure
- experimental_conditions: 355.15 K; 101.33 kPa; Liquid; Small sample (50 mg) DSC
assay_endpoint: molar heat capacity at constant pressure (J/K/mol)

[
  {
    "structure_as_smiles": "BrCCCCCCCCBr",
    "molar heat capacity at constant pressure (J/K/mol)": 328.58
  },
  {
    "structure_as_smiles": "BrCCCCCCCCCCCBr",
    "molar heat capacity at constant pressure (J/K/mol)": 425.41
  },
  {
    "structure_as_smiles": "BrCCCCCCCCCCCCBr",
    "molar heat capacity at constant pressure (J/K/mol)": 457.9
  },
  {
    "structure_as_smiles": "BrCCCCCCCCCBr",
    "molar heat capacity at constant pressure (J/K/mol)": 360.95
  }
]

###

- protocol_description: molar heat capacity at constant pressure
- experimental_conditions: 352.65 K; 101.33 kPa; Liquid; Small sample (50 mg) DSC
assay_endpoint: molar heat capacity at constant pressure (J/K/mol)

[
  {
    "compound": "BrCCCCCCCCCBr [1,9-dibromononane]",
    "molar heat capacity at constant pressure / J/K/mol": 359.79
  },
  {
    "compound": "BrCCCCCCCCCCCBr [1,11-dibromoundecane]",
    "molar heat capacity at constant pressure / J/K/mol": 424.04
  },
  {
    "compound": "BrCCCCCCCCCCCCBr [1,12-dibromododecane]",
    "molar heat capacity at constant pressure / J/K/mol": 456.59
  },
  {
    "compound": "BrCCCCCCCCBr [1,8-dibromooctane]",
    "molar heat capacity at constant pressure / J/K/mol": 327.62
  }
]
